Sourced from the CheMixHub drug solubility set

ASSAY_METHOD_TEXT: xn = mol fraction of the nth substance listed, in the solute-free solvent
SETTINGS: 313.15 K; x2 = 0.5
MEASURED_PROPERTY: solubility (g/100 g solution)
Give the figure by itself; no unit, no explanation.

# example entries with known answers
MOLECULE: CCCCN1CCCCC1C(=O)Nc1c(C)cccc1C.Cl.O (stereo not given) + CO + O
MEASURED_PROPERTY: solubility (g/100 g solution)
REPORTED_RESULT: 13.3
--
MOLECULE: CC1(C)SC2C(NC(=O)C(NC(=O)N3CCNC3=O)c3ccccc3)C(=O)N2C1C(=O)O (stereo not given) + CCO + CC(C)O
MEASURED_PROPERTY: solubility (g/100 g solution)
REPORTED_RESULT: 0.636
--
MOLECULE: CCCCN1CCCCC1C(=O)Nc1c(C)cccc1C.Cl.O (stereo not given) + CCO + O
MEASURED_PROPERTY: solubility (g/100 g solution)
REPORTED_RESULT: 8.48
--
MOLECULE: O=c1ccc2ccccc2o1 + CO + O
MEASURED_PROPERTY: solubility (g/100 g solution)
REPORTED_RESULT: 43.2

API: the following record is the query input.
Report solubility (g/100 g solution) for CCOC(=O)C1=CC2(CC)CCCN3CCc4c(n1c1ccccc41)C32 (stereo not given) + CCO + O please. 0.726

---

ASSAY_METHOD_TEXT: xn = mol fraction of the nth substance listed, in the solute-free solvent
SETTINGS: 303.15 K; x2 = 0.1139
In this section we review reported solubility (g/100 g solution) values for a set of molecules.
Give the figure by itself; no unit, no explanation.

MOLECULE: COC(=O)C1=C(C)NC(C)=C(C(=O)OCC(C)C)C1c1ccccc1[N+](=O)[O-] (centres undefined) + CCCO + O
solubility (g/100 g solution): 2.6

Report solubility (g/100 g solution) for CS(=O)(=O)c1ccc(C(O)C(CF)NC(=O)C(Cl)Cl)cc1 (centres undefined) + CC(C)O + O please. 0.64

Report solubility (g/100 g solution) for CC(=O)Nc1ccc(OC(=O)c2ccccc2OC(C)=O)cc1 + CC(C)O + O please. 0.0718

Report solubility (g/100 g solution) for O=[N+]([O-])c1cc[nH]n1 + CCCO + O please. 1.45

---

In this section we review reported solubility (g/100 g solution) values for a set of molecules.
ASSAY_METHOD_TEXT: xn = mol fraction of the nth substance listed, in the solute-free solvent
SETTINGS: 293.15 K; x2 = 0.2307
Give the figure by itself; no unit, no explanation.

MOLECULE: CS(=O)(=O)c1ccc(C(O)C(CF)NC(=O)C(Cl)Cl)cc1 (stereo not given) + CC(C)O + O
solubility (g/100 g solution): 0.56
//
MOLECULE: O=[N+]([O-])c1cc[nH]n1 + CCCO + O
solubility (g/100 g solution): 1.97
//
MOLECULE: COC(=O)C1=C(C)NC(C)=C(C(=O)OCC(C)C)C1c1ccccc1[N+](=O)[O-] (stereo not given) + CCCO + O
solubility (g/100 g solution): 3.08
//
MOLECULE: O=c1[nH]cc(F)c(=O)[nH]1 + CCCO + C1CCOC1
solubility (g/100 g solution): 0.195

API: the following record is the query input.
Report solubility (g/100 g solution) for CC(=O)Nc1ccc(OC(=O)c2ccccc2OC(C)=O)cc1 + CC(C)O + O please. 0.0921

---

ASSAY_METHOD_TEXT: xn = mol fraction of the nth substance listed, in the solute-free solvent
SETTINGS: 318.15 K; x2 = 0.2307
MEASURED_PROPERTY: solubility (g/100 g solution)

# example entries with known answers
COMPOUND: CS(=O)(=O)c1ccc(C(O)C(CF)NC(=O)C(Cl)Cl)cc1 (stereo not given) + CC(C)O + O
REPORTED_RESULT: 1.88
--
COMPOUND: COC(=O)C1=C(C)NC(C)=C(C(=O)OCC(C)C)C1c1ccccc1[N+](=O)[O-] (stereo not given) + CCCO + O
REPORTED_RESULT: 7.24
--
COMPOUND: O=c1[nH]cc(F)c(=O)[nH]1 + CCCO + C1CCOC1
REPORTED_RESULT: 0.452
--
COMPOUND: O=[N+]([O-])c1cc[nH]n1 + CCCO + O
REPORTED_RESULT: 5.37

API: the following record is the query input.
Report solubility (g/100 g solution) for CC(=O)Nc1ccc(OC(=O)c2ccccc2OC(C)=O)cc1 + CC(C)O + O please. 0.371

---

In this section we review reported solubility (g/100 g solution) values for a set of molecules.
ASSAY_METHOD_TEXT: xn = mol fraction of the nth substance listed, in the solute-free solvent
SETTINGS: 288.15 K; x2 = 0.7
Give the figure by itself; no unit, no explanation.

MOLECULE: CN1CCN(C(=O)OC2c3nccnc3C(=O)N2c2ccc(Cl)cn2)CC1 (stereo not drawn) + CCO + O
solubility (g/100 g solution): 0.59

Report solubility (g/100 g solution) for CN1CCN(C(=O)OC2c3nccnc3C(=O)N2c2ccc(Cl)cn2)CC1 (stereo not drawn) + C1CCOC1 + O please. 2.8

Report solubility (g/100 g solution) for O=c1ccc2ccccc2o1 + CC(C)=O + O please. 39.3

---

ASSAY_METHOD_TEXT: xn = mol fraction of the nth substance listed, in the solute-free solvent
SETTINGS: 328.15 K; x2 = 0.7
MEASURED_PROPERTY: solubility (g/100 g solution)
Give the figure by itself; no unit, no explanation.

MOLECULE: CN1CCN(C(=O)OC2c3nccnc3C(=O)N2c2ccc(Cl)cn2)CC1 (stereo unspecified) + CC#N + O
solubility (g/100 g solution): 8.64
--
MOLECULE: CCCCN1CCCCC1C(=O)Nc1c(C)cccc1C.Cl.O (stereo unspecified) + CCO + O
solubility (g/100 g solution): 20.6
--
MOLECULE: CN1CCN(C(=O)OC2c3nccnc3C(=O)N2c2ccc(Cl)cn2)CC1 (stereo unspecified) + CCO + O
solubility (g/100 g solution): 3.65
--
MOLECULE: CN1CCN(C(=O)OC2c3nccnc3C(=O)N2c2ccc(Cl)cn2)CC1 (stereo unspecified) + CC(C)=O + O
solubility (g/100 g solution): 3.5
--
MOLECULE: CCCCN1CCCCC1C(=O)Nc1c(C)cccc1C.Cl.O (stereo unspecified) + CO + O
solubility (g/100 g solution): 30.3

API: the following record is the query input.
Report solubility (g/100 g solution) for CN1CCN(C(=O)OC2c3nccnc3C(=O)N2c2ccc(Cl)cn2)CC1 (stereo unspecified) + C1CCOC1 + O please. 8.4

---

In this section we review reported solubility (g/100 g solution) values for a set of molecules.
ASSAY_METHOD_TEXT: xn = mol fraction of the nth substance listed, in the solute-free solvent
SETTINGS: 298.15 K; x2 = 0.06974
Give the figure by itself; no unit, no explanation.

# example entries with known answers
MOLECULE: COC(=O)C1=C(C)NC(C)=C(C(=O)OCC(C)C)C1c1ccccc1[N+](=O)[O-] (centres undefined) + CC(C)O + O
REPORTED_RESULT: 1.49

MOLECULE: CC(=O)Nc1ccc(OC(=O)c2ccccc2OC(C)=O)cc1 + CC(C)O + O
REPORTED_RESULT: 0.0268

Report solubility (g/100 g solution) for CS(=O)(=O)c1ccc(C(O)C(CF)NC(=O)C(Cl)Cl)cc1 (centres undefined) + CC(C)O + O please. 0.362

Report solubility (g/100 g solution) for COC(=O)C1=C(C)NC(C)=C(C(=O)OCC(C)C)C1c1ccccc1[N+](=O)[O-] (centres undefined) + CCCO + O please. 1.16

---

ASSAY_METHOD_TEXT: xn = mol fraction of the nth substance listed, in the solute-free solvent
SETTINGS: 308.15 K; x2 = 0.3103
Cut-off 1 on solubility (g/100 g solution), inclusive. At or above means True; below means False.

Example entries and their recorded answers appear below.
COMPOUND: CS(=O)(=O)c1ccc(C(O)C(CF)NC(=O)C(Cl)Cl)cc1 (stereo not given) + CC(C)O + O
CLASS_ASSIGNMENT: True

COMPOUND: O=[N+]([O-])c1cc[nH]n1 + CCCO + O
CLASS_ASSIGNMENT: True

COMPOUND: COC(=O)C1=C(C)NC(C)=C(C(=O)OCC(C)C)C1c1ccccc1[N+](=O)[O-] (stereo not given) + CC(C)O + O
CLASS_ASSIGNMENT: True

COMPOUND: COC(=O)C1=C(C)NC(C)=C(C(=O)OCC(C)C)C1c1ccccc1[N+](=O)[O-] (stereo not given) + CCCO + O
CLASS_ASSIGNMENT: True

For the next question, use this compound.
Has CC(=O)Nc1ccc(OC(=O)c2ccccc2OC(C)=O)cc1 + CC(C)O + O a recorded solubility (g/100 g solution) greater than or equal to 1? False
